- System: LoVo-Dox
- TEST METHOD NOTES: SRB colorimetric assay of cell growth and viability, LoVo-Dox
- Format: cell-based, human
- MEASUREMENT CONTEXT: 48 hours exposure
Where a SMILES comes first, the peptide text is derived from it. Bridges are numbered along the chain shown (N, C = ends). [ ]: non-standard residue; d: D form. The star is where a group is joined. d(aIle) = CC[C@H](C)[C@@H](N)C(=O)O; d(aThr) = C[C@@H](O)[C@@H](N)C(=O)O; Hexanoyl(5-Me) = CC(C)CCCC(=O)*; Orn = NCCC[C@H](N)C(=O)O; Dhb = C/C=C(\N)C(=O)O
Sorting guide: entries reporting GI50 beneath 1000 nM go in the True pile, the rest go in the False pile.

Please review the entries below; each comes with its answer.
C/C=C1\NC(=O)[C@H](Cc2ccccc2)NC(=O)[C@@H](C(C)C)NC(=O)[C@@H]([C@@H](C)CC)NC(=O)[C@H](NC(=O)[C@H](NC(=O)[C@H](CCCN)NC(=O)[C@H]2CCCN2C(=O)[C@H](NC(=O)[C@@H](NC(=O)[C@@H](NC(=O)[C@H](NC(=O)CCCC(C)C)C(C)C)[C@@H](C)O)C(C)C)C(C)C)[C@@H](C)CC)COC(=O)[C@H](C(C)C)NC1=O [Compound 3, [D-Ser^6]-KF] ({Hexanoyl(5-Me)}-[dV]TV[dV][dP][Orn][d(aIle)][dS][d(aIle)][dV]F[Dhb]V; ester 8-C) ... True
C/C=C1\NC(=O)[C@H](Cc2ccccc2)NC(=O)[C@@H](C(C)C)NC(=O)[C@@H]([C@@H](C)CC)NC(=O)[C@H](NC(=O)[C@H](NC(=O)[C@H](CCCN)NC(=O)[C@H]2CCCN2C(=O)[C@H](NC(=O)[C@@H](NC(=O)[C@H](CC(C)C)NC(=O)CCCC(C)C)C(C)C)C(C)C)[C@@H](C)CC)[C@@H](C)OC(=O)[C@H](C(C)C)NC1=O [Compound 54, [Leu^12, noD-Val^13]-KF] ({Hexanoyl(5-Me)}-LV[dV][dP][Orn][d(aIle)][d(aThr)][d(aIle)][dV]F[Dhb]V; ester 7-C) ... False
C/C=C1\NC(=O)[C@H](Cc2ccccc2)NC(=O)[C@@H](C(C)C)NC(=O)[C@@H]([C@@H](C)CC)NC(=O)[C@H](NC(=O)[C@H](NC(=O)[C@H](CCCN)NC(=O)[C@H]2CCCN2C(=O)[C@H](NC(=O)[C@@H](NC(=O)[C@@H](NC(=O)[C@@H](C)NC(=O)CCCC(C)C)[C@@H](C)O)C(C)C)C(C)C)[C@@H](C)CC)[C@@H](C)OC(=O)[C@H](C(C)C)NC1=O [Compound 34, [D-Ala^13]-KF] ... True
C/C=C1\NC(=O)[C@H](Cc2ccccc2)NC(=O)[C@@H](C(C)C)NC(=O)[C@@H]([C@@H](C)CC)NC(=O)[C@H](NC(=O)[C@H](NC(=O)[C@H](CCCN)NC(=O)[C@H]2CCCN2C(=O)[C@H](NC(=O)[C@@H](NC(=O)[C@@H](NC(=O)[C@H](NC(=O)CC[C@H](C)CC)C(C)C)[C@@H](C)O)C(C)C)C(C)C)[C@@H](C)CC)[C@@H](C)OC(=O)[C@H](C(C)C)NC1=O [Compound 16, [(4R)-MeHex^14]-KF] ... True

Continue with the next compound.
Asked: In plain terms, does C/C=C1\NC(=O)[C@H](Cc2ccccc2)NC(=O)[C@@H](C(C)C)NC(=O)[C@@H]([C@@H](C)CC)NC(=O)[C@H](NC(=O)[C@H](NC(=O)[C@H](CCCN)NC(=O)[C@H]2CCCN2C(=O)[C@H](NC(=O)[C@@H](NC(=O)[C@@H](NC(=O)[C@@H](NC(=O)CCCC(C)C)C(C)C)[C@@H](C)O)C(C)C)C(C)C)[C@@H](C)CC)[C@@H](C)OC(=O)[C@H](C(C)C)NC1=O [Compound 38, [Val^13]-KF] come in under 1000 nM for GI50?
Given back: False

// data source = patent US20070117743A1
